Entry source: patent US7652022B2

Please respond with reported Flt3 (% at 10 μM) for every item in the list.
- target: cytoplasmic kinase domain of human Flt-3 (Homo sapiens, UniProt P36888)
- Construct: amino acids 563-993 of the cytoplasmic kinase domain of human Flt-3; made in house; host or cells: Sf9 insect cells (baculovirus, donor vector pFbacG01)
- Sequence (P36888 563-993): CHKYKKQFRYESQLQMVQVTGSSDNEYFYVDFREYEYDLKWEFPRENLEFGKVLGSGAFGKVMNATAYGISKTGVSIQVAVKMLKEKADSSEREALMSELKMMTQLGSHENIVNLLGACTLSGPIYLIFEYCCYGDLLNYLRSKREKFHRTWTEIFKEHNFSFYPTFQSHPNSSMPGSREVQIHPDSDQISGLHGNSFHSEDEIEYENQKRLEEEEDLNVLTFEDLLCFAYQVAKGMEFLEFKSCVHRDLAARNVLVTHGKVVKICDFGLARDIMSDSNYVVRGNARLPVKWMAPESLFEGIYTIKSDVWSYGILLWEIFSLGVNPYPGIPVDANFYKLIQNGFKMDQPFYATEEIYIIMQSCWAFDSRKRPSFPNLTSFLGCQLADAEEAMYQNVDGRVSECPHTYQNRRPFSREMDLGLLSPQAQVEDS
- assay: Flt3 kinase inhibition, GST-Flt-3 filter binding assay
- Type: biochemical
- test.context: % inhibition at 10 μM
Answers are plain numbers, in %.

Solved cases below.
O=C(Nc1ccc(Oc2cc(Cl)ncn2)cc1)Nc1cccc(C(F)(F)F)c1 [Example 21]
94
CCCc1ccc(NC(=O)Cc2ccc(Oc3ccncc3)cc2)cc1 [Example 18]
88
Cc1ccc(NC(=O)Nc2ccc(Cc3ccncc3)cc2)cc1 [Example 14]
89
COc1cc(NC(=O)Nc2ccc(Oc3ccncc3)cc2)cc(C(F)(F)F)c1 [Example 11]
100

Then there is this compound:
**Q:** Value lookup for Flt3 (% at 10 μM); key = O=C(Nc1cccc(C(F)(F)F)c1)N1CCc2cc(Oc3ccncc3)ccc21 [Example 19]
**A:** 63

----------
- target: human VEGF-R2 receptor (KDR) (Homo sapiens)
- Construct: expressed in transfected cells
- Sequence (P35968 20-1356): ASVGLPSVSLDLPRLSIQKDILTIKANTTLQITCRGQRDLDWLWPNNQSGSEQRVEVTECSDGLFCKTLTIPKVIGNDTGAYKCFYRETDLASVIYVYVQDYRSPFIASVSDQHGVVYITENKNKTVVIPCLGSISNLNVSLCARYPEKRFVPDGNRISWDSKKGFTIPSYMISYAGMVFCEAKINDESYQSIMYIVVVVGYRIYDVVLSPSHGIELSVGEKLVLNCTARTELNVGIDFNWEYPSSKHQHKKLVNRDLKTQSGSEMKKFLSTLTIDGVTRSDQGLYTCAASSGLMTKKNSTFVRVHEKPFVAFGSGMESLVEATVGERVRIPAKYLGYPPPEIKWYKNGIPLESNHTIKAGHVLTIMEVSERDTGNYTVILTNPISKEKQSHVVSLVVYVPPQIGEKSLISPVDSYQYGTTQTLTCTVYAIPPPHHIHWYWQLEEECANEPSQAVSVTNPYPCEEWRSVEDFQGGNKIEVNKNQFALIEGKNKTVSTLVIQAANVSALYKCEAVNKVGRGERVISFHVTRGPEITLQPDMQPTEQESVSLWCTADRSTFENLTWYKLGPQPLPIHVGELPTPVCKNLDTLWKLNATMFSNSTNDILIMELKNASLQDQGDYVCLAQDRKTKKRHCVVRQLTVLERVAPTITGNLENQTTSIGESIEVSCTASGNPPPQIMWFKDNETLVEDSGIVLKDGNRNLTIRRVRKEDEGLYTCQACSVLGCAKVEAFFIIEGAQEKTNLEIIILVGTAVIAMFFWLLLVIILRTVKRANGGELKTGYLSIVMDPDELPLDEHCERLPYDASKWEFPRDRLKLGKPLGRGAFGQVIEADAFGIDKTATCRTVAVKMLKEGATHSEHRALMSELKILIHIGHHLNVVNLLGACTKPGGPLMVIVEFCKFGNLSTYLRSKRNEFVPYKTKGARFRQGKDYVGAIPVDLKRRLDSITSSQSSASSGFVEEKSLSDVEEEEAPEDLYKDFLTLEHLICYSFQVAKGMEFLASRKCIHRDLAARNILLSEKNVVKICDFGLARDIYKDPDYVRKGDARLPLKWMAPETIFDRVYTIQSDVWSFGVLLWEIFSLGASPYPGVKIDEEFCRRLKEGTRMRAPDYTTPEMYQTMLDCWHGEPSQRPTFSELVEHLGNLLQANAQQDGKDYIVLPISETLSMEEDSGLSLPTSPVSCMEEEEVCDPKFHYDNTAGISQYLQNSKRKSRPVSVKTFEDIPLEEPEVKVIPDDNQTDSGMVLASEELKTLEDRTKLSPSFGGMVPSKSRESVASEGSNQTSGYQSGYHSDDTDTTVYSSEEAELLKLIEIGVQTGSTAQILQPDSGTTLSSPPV
- assay: Inhibition of VEGF-induced VEGF-R2 (KDR) autophosphorylation in transfected CHO cells, sandwich ELISA
- Format: cell-based
- test.context: % inhibition at 10 μM
Field: KDR trans (% at 10 μM). Provide a value for each of the molecules that follow.
Answers are plain numbers, in %.

O=C(Nc1ccc(Cc2ccncc2)cc1)Nc1cccc(C(F)(F)F)c1
99

Can you give me KDR trans (% at 10 μM) for all of these, one by one?
1. Cc1ccc(NC(=O)Nc2ccc(Cc3ccncc3)cc2)cc1
2. O=C(Nc1ccc(Oc2ccncc2)cc1)Nc1cccc(C(F)(F)F)c1
3. CCc1ccc(NC(=O)Cc2ccc(Oc3ccncc3)cc2)cc1
4. O=C(Nc1ccc(Oc2ccncc2)cc1)Nc1ccc(Br)c(C(F)(F)F)c1
5. CCc1ccc(NC(=O)Nc2ccc(Cc3ccncc3)cc2)cc1

**A:**
[97, 99, 99, 92, 98]

Batch lookup, KDR trans (% at 10 μM) per entry.
1. O=C(Nc1ccc(Oc2cc(Nc3ccc(O)cc3)ncn2)cc1)Nc1ccc(OCC(F)(F)F)c(C(F)(F)F)c1
2. O=C(Nc1ccc(Oc2cc(Cl)ncn2)cc1)Nc1cccc(C(F)(F)F)c1
3. COc1cc(NC(=O)Nc2ccc(Oc3ccncc3)cc2)cc(C(F)(F)F)c1
4. O=C(Nc1cccc(C(F)(F)F)c1)N1CCc2cc(Oc3ccncc3)ccc21

**A:**
1: 96; 2: 100; 3: 100; 4: 86

Dear colleague, could you send me KDR trans (% at 10 μM) for each of the items below? Thanks.
1. Cc1ccc(NC(=O)Cc2ccc(Oc3ccncc3)cc2)cc1
2. Cc1ccc(NC(=O)Nc2ccc(Oc3ccncc3)cc2)cc1
3. O=C(Nc1cccc(C(F)(F)F)c1)N1CCCc2cc(Oc3ccncc3)ccc21

**A:**
[96, 99, 93]

**Q:** Can you share its KDR trans (% at 10 μM)? I mean this molecule: O=C(Nc1ccc(Oc2ccncc2)cc1)Nc1ccc(OCC(F)(F)F)c(C(F)(F)F)c1
**A:** 100

----------
- target: cytoplasmic kinase domain of human Flt-3 (Homo sapiens)
- Construct: amino acids 563-993 of the cytoplasmic kinase domain of human Flt-3; made in house; host or cells: Sf9 insect cells (baculovirus, donor vector pFbacG01)
- assay: Flt3 kinase inhibition, GST-Flt-3 filter binding assay
- Format: biochemical
- test.context: % inhibition at 10 μM
Tag: true if measured Flt3 (% at 10 μM) is not below 90%, false if it is.

O=C(Nc1cccc(C(F)(F)F)c1)N1CCCc2cc(Oc3ccncc3)ccc21
false

**Q:** Tell me whether Flt3 (% at 10 μM) is at least 90% here: CN(C(=O)Nc1cccc(C(F)(F)F)c1)c1ccc(Oc2ccncc2)cc1
**A:** false

**Q:** Check if Flt3 (% at 10 μM) >= 90% (inclusive). Item: CCc1ccc(NC(=O)Cc2ccc(Oc3ccncc3)cc2)cc1
**A:** true

**Q:** I'd appreciate it if you could say whether Cc1ccc(NC(=O)Nc2ccc(Oc3ccncc3)cc2)cc1 has Flt3 (% at 10 μM) at least equal to 90%.
**A:** true
